Data origin: patent US20100298340A1

- tgt: human β-Secretase (Homo sapiens)
- Sequence (P56817 22-460): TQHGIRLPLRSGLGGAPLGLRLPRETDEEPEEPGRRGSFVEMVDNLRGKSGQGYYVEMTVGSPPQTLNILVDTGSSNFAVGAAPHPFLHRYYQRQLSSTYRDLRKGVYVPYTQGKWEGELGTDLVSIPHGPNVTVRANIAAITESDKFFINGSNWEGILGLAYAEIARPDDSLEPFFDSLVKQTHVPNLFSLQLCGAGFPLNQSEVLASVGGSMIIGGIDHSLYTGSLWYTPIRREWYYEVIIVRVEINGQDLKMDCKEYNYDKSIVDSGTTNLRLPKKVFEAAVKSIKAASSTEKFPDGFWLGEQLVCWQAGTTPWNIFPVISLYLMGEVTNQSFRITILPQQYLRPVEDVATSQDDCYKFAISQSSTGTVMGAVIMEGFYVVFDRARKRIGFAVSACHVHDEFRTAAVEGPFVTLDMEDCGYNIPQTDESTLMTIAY
observed_property: IC50 (µM)
Numbers only, in µM.

Qu. Entry `Cc1nc(NC(=N)N)sc1-c1cccc(NC(=O)c2ccc(-c3csnn3)cc2)c1` has what IC50?
Ans. 4.47
